molecular target: memapsin 2 (Homo sapiens); test: Inhibition of memapsin 2 catalytic activity (Ki); assay type: biochemical; conditions: memapsin 2, pH 4, 37° C.; read-out: M2K
Sequence (P56817 46-501): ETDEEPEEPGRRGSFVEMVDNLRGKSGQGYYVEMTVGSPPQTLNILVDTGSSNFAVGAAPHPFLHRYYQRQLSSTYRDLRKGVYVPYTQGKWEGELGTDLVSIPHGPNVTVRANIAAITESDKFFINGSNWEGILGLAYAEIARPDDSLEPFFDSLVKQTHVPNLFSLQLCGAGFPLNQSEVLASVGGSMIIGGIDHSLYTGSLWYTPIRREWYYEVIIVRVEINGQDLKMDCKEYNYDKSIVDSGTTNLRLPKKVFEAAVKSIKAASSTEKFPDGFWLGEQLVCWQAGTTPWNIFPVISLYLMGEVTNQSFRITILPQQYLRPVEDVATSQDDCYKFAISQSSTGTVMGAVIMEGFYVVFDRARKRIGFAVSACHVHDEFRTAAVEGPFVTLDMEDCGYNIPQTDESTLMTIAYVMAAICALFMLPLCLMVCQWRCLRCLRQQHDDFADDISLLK
REPORTED PROPERTY: Ki

1) COc1ccccc1CNCC(O)C(Cc1ccccc1)NC(=O)c1cc(C(=O)NC(C)c2ccccc2)cc(N(C)S(C)(=O)=O)c1 (stereo not shown)    < 300 nM
2) COc1cccc(CN2CCC(CNCC(O)C(Cc3ccccc3)NC(=O)c3cc(C(=O)NC(C)c4ccccc4)cc(N(C)S(C)(=O)=O)c3)CC2)c1 (stereo not shown)    > 501 nM
3) CC(NC(=O)c1cc(C(=O)NC(Cc2ccccc2)C(O)CNCc2nccn2COCC[Si](C)(C)C)cc(N(C)S(C)(=O)=O)c1)c1ccccc1 (stereo not shown)    301 to 500 nM
4) COc1cccc(CNCC(O)C(CC(C)C)NC(=O)c2cc(C(=O)NC(C)c3ccccc3)cc(N(C)S(C)(=O)=O)c2)c1 (stereo not shown)    > 501 nM

These data points were gathered from patent US7504420B2.
